assayMethodText: qHTS of pediatric cancer cell lines to identify multiple opportunities for drug repurposing: Primary screen for MG 63 (6-TG R) cells (AID 1347105); note: nearly all actives have a fitted effect of over 50% in size
runParameters: MG 63 (6-TG R) viability, CellTiter-Glo, 48 h; series mostly up to 46 µM
Results filed as inconclusive are left out. Calls of active or inactive are those of the source. Calls come from the whole dose curve; as a rule, active = well fitted cell-killing curve with a large enough effect; inconclusive = small, poorly fitted or top-dose-only effect; inactive = no such curve, though single readings can be large or run the other way.
Choose the fitting class; nothing outside t for active, f for inactive is accepted.

Example cases with answers are listed next.
compound: OCCn1cc(-c2ccc3c(c2)CCC3=NO)c(-c2ccncc2)n1
assignedCategory: f
--
compound: COc1ccc2c(c1)c(C1=C(c3c[nH]c4ccccc34)C(=O)NC1=O)cn2CCCN(C)C
assignedCategory: f
--
compound: O=C(O)CCNc1cc(N2CCc3ccccc3CC2)nc(-c2ccccn2)n1
assignedCategory: f

GET /call?item= "CC(=O)Nc1cccc(-n2c(=O)n(C3CC3)c(=O)c3c(Nc4ccc(I)cc4F)n(C)c(=O)c(C)c32)c1" returns the recorded outcome of this test.
f

// outcome(item) with item = COc1ccnc(CS(=O)c2nc3ccc(OC(F)F)cc3[nH]2)c1OC (stereo not given)
f

Assay result, entry "COc1cc2ncn(-c3cc(OCc4ccccc4S(C)(=O)=O)c(C#N)s3)c2cc1OC" — outcome?
f

Would you mind telling me which call this test gave "CNC(=O)c1cc(COc2nnc(Nc3ccc(Cl)cc3)c3ccoc23)ccn1" ?
t
